target: human cannabinoid CB1 receptor (Homo sapiens); construct: expressed in transfected cells; host or cells: Chinese hamster ovary (CHO) cells, stably transfected; membrane preparations; test: In vitro affinity for cannabinoid-CB1 receptors ([3H]CP-55,940 radioligand, CHO cell membrane preparations); assay type: binding; settings: CHO cell membranes, stably transfected human CB1, [3H]CP-55,940; read-out: Human cannabinoid-CB1 receptor In vitro affinity - pKi value (converted)
Sequence (P21554 whole entry): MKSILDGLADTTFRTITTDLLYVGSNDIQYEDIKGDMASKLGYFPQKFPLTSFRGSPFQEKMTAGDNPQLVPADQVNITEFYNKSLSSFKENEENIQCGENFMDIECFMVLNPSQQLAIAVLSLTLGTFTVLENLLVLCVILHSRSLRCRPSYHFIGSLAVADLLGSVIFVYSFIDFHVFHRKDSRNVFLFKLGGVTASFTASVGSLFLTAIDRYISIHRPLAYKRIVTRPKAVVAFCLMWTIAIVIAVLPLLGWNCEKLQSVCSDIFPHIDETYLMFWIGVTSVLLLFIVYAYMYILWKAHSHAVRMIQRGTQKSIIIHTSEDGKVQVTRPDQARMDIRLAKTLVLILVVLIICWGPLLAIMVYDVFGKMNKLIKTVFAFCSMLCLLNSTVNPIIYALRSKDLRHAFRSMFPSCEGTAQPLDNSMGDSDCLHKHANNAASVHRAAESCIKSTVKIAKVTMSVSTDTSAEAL
Property label: Ki (nM)

Some compounds with recorded Ki:
[[record]]
compound = "O=C(NC1CCCCC1)c1nc(-c2ccc(Cl)cc2Cl)n(-c2ccc(Cl)cc2)c1CN1CCCC1 [Compound 1]"
measure_unit = "nM"
quantitative_readout = 7.94

[[record]]
compound = "CCN(C)Cc1c(C(=O)NN2CCCCC2)nc(-c2ccc(Cl)cc2Cl)n1-c1ccc(Cl)cc1 [Compound 6]"
measure_unit = "nM"
quantitative_readout = 126


I = CN(C)Cc1c(C(=O)NN2CCCCC2)nc(-c2ccc(Cl)cc2Cl)n1-c1ccc(Cl)cc1 [Compound 3]
II = CCN(C)Cc1c(C(=O)NC2CCCCC2)nc(-c2ccc(Cl)cc2Cl)n1-c1ccc(Cl)cc1 [Compound 2]
Query block: Larger number for Ki: I , or II ? Answer by stating the label of the chosen item.
Result block: I
(I: 100 nM, II: 6.31 nM)

* * *

test: Determination of aqueous solubility (precipitate formation after 100-fold dilution of DMSO stock solutions); assay type: physicochemical; settings: pH 2, simulated gastric fluid, kinetic from dmso stock
Property label: solubility (µg/mL)
A number alone suffices; assume µg/mL.

Query block: So what does the record say about solubility for O=C(NC1CCCCC1)c1cn(-c2ccc(Cl)cc2)c(-c2ccc(Cl)cc2Cl)n1 [reference compound] ?
Result block: 25

* * *

Examples of compounds with documented solubility follow.
experiment: Determination of aqueous solubility (precipitate formation after 100-fold dilution of DMSO stock solutions); assay type: physicochemical; conditions: pH 7, aqueous buffer, kinetic from dmso stock
A number alone suffices; assume µg/mL.

[[record]]
compound = "O=C(NC1CCCCC1)c1cn(-c2ccc(Cl)cc2)c(-c2ccc(Cl)cc2Cl)n1 [reference compound]"
quantitative_readout = 25


Kindly review the next compound as well.
Query block: So what does the record say about solubility for O=C(NC1CCCCC1)c1nc(-c2ccc(Cl)cc2Cl)n(-c2ccc(Cl)cc2)c1CN1CCCC1 [Compound 1] ?
Result block: 50
